# Assay Target: GSK3b (GST-full length GSK3b) (Homo sapiens (Human), UniProt P49841)
# Sequence (P49841 whole entry): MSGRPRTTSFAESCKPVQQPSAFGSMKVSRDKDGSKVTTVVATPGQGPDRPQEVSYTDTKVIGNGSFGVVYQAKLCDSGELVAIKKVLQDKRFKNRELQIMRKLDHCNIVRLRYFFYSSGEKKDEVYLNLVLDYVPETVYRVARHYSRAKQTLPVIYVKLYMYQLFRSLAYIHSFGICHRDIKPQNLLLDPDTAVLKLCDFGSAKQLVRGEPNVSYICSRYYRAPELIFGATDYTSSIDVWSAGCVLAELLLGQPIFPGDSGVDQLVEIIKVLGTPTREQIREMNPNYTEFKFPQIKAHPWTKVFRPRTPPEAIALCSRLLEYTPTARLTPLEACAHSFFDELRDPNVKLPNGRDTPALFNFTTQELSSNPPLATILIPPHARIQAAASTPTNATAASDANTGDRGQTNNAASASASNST
# Assay Comment: GSK3b TR-FRET kinase assay
# Assay type: biochemical
# Condition Details: 1 nM GSK3b, 2 μM ATP, 30 minute preincubation, Table 16; read-out: GSK3-B TR-FRET BIOCHEMICAL (TR-FRET)
Measured Property: IC50

>>> test_result("CC1(C)CC(=O)C2=C(C1)Nc1n[nH]cc1C21CCC(S(C)(=O)=O)CC1 (stereo not shown)")
"≤ 100 nM"
>>> test_result("CC[C@]1(c2cccc(-c3ccncc3F)c2)C2=C(CC(C)(C)CC2=O)Nc2n[nH]cc21")
"1000 to 5000 nM"
>>> test_result("CCC1(c2cccc(C(F)(F)F)c2)C2=C(CNC2=O)Nc2n[nH]cc21 (stereo not shown) [Compound 913156]")
"> 5000 nM"
>>> test_result("CC1(C)CC(=O)C2=C(C1)Nc1n[nH]cc1C21CN(c2ccc(C(F)(F)F)cc2)C1")
"100 to 1000 nM"
>>> test_result("CCC1(c2cccc(-c3cnn(C)c3)c2)C2=C(Nc3n[nH]cc31)C(F)C(C)(C)CC2=O (stereo not shown) [Compound 957510]")
"> 5000 nM"
>>> test_result("CC[C@]1(c2cccc(-c3cc(C)ncc3OC)c2)C2=C(CC(C)(C)CC2=O)Nc2n[nH]cc21")
"≤ 100 nM"
>>> test_result("CC[C@]1(c2ccccc2)C2=C(Nc3n[nH]cc31)[C@@H](F)C(C)(C)CC2=O")
"> 5000 nM"
>>> test_result("C[C@H]1C[C@]2(CCO1)C1=C(CC(C)(C)CC1=O)Nc1n[nH]cc12")
"100 to 1000 nM"
>>> test_result("CC(C)Oc1ccc(S(=O)(=O)N2CCC3(CC2)C2=C(CC(C)(C)CC2=O)Nc2n[nH]cc23)cc1")
"≤ 100 nM"
>>> test_result("CC[C@@]1(c2ccccc2)C2=C(C[C@@]3(CCNC3=O)CC2=O)Nc2n[nH]cc21")
"> 5000 nM"
>>> test_result("CCC1(c2cccc(-c3ccnc(C)c3)c2)C2=C(CC3(CCOC3)CC2=O)Nc2n[nH]cc21 (stereo not shown) [Compound 947412]")
"> 5000 nM"
>>> test_result("COc1ccc(S(=O)(=O)N2CCC3(CC2)C2=C(CC(C)(C)CC2=O)Nc2n[nH]cc23)c(C)c1C")
"100 to 1000 nM"
>>> test_result("CCC1(c2cccc(-c3ccnc(C)c3)c2)C2=C(Nc3n[nH]cc31)C(F)C(C)(C)CC2=O (stereo not shown) [Compound 946102]")
"> 5000 nM"
>>> test_result("O=C1CC2(CCCC2)CC2=C1C1(CCOCC1)c1c[nH]nc1N2")
"100 to 1000 nM"
>>> test_result("CC1(C)CC(=O)C2=C(C1)Nc1n[nH]cc1C21CCCSCC1 (stereo not shown)")
"100 to 1000 nM"
>>> test_result("CC1(C)CC(=O)C2=C(C1)Nc1n[nH]cc1C21CCN(S(=O)(=O)c2cccc(Cl)c2)CC1")
"≤ 100 nM"
